Entries and their normalized RNA/DNA level with ligand (log10) values follow.
B1: library; a variant is named by its letters at N, in order (parent)
chain: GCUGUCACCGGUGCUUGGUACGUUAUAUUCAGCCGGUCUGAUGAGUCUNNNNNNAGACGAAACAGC

Variants of: B1
Test: normalized RNA/DNA level with ligand (relative to sTRSVctl = 100) (log10 (% of sTRSVctl)); HEK293T overexpressing SLC46A1; ligand concentration (+) RNA-Seq: 6 mM; higher = less ribozyme self-cleavage, higher mRNA level
Settings: with (6R,S)-folinic acid; ligand present: yes
property: normalized RNA/DNA level with ligand (log10)

orderedResidues: GCUGUCACCGGUGCUUGGUACGUUAUAUUCAGCCGGUCUGAUGAGUCUCCUGGGAGACGAAACAGC [CCUGGG]
valueReported: 2.02
//
orderedResidues: GCUGUCACCGGUGCUUGGUACGUUAUAUUCAGCCGGUCUGAUGAGUCUCGAGGUAGACGAAACAGC [CGAGGU]
valueReported: 2.02
//
orderedResidues: GCUGUCACCGGUGCUUGGUACGUUAUAUUCAGCCGGUCUGAUGAGUCUAGCUAGAGACGAAACAGC [AGCUAG]
valueReported: 2.01
//
orderedResidues: GCUGUCACCGGUGCUUGGUACGUUAUAUUCAGCCGGUCUGAUGAGUCUUAACCCAGACGAAACAGC [UAACCC]
valueReported: 2
//
orderedResidues: GCUGUCACCGGUGCUUGGUACGUUAUAUUCAGCCGGUCUGAUGAGUCUUUCGUUAGACGAAACAGC [UUCGUU]
valueReported: 1.98
//
orderedResidues: GCUGUCACCGGUGCUUGGUACGUUAUAUUCAGCCGGUCUGAUGAGUCUGCAGUUAGACGAAACAGC [GCAGUU]
valueReported: 2.04
//
orderedResidues: GCUGUCACCGGUGCUUGGUACGUUAUAUUCAGCCGGUCUGAUGAGUCUCCGCUGAGACGAAACAGC [CCGCUG]
valueReported: 2.07
//
orderedResidues: GCUGUCACCGGUGCUUGGUACGUUAUAUUCAGCCGGUCUGAUGAGUCUUGCAAGAGACGAAACAGC [UGCAAG]
valueReported: 1.96
//
orderedResidues: GCUGUCACCGGUGCUUGGUACGUUAUAUUCAGCCGGUCUGAUGAGUCUAACCUCAGACGAAACAGC [AACCUC]
valueReported: 2.07
//
orderedResidues: GCUGUCACCGGUGCUUGGUACGUUAUAUUCAGCCGGUCUGAUGAGUCUUACCCGAGACGAAACAGC [UACCCG]
valueReported: 1.98
//
orderedResidues: GCUGUCACCGGUGCUUGGUACGUUAUAUUCAGCCGGUCUGAUGAGUCUUGUAAUAGACGAAACAGC [UGUAAU]
valueReported: 1.99
